Tested on: PC-3
Run description: Cytotoxicity against human PC3 cells assessed as cell viability at 10 uM after 24 hrs by MTT assay relative to control
Format: functional
Test conditions: PC-3, 24 h, read-out: Activity
Property name: viability at 10 µM (%)
The reply should contain only the number, in %.

# Compound, Property name, Reported measurement
data = [
    ("C=C1C(=O)O[C@@H]2[C@H]3O[C@]3(C)CC/C=C(/COC(=O)c3coc(-c4ccc(Br)cc4)c3)CC[C@@H]12", "viability at 10 µM", 65.9),
    ("C=C1C(=O)O[C@@H]2[C@H]3O[C@]3(C)CC/C=C(\\C)[C@@H](OC(=O)c3ccc(C(F)(F)F)cc3)C[C@@H]12", "viability at 10 µM", 47.6),
    ("C=C1C(=O)O[C@@H]2[C@H]3O[C@]3(C)CC/C=C(/COCc3ccccc3)CC[C@@H]12", "viability at 10 µM", 94.7),
]

viability at 10 µM reading for C=C1C(=O)O[C@@H]2[C@H]3O[C@]3(C)CC/C=C(/COC(C(=O)OCc3ccccc3)c3ccccc3)CC[C@@H]12 (some centres undefined) : 85.2

viability at 10 µM reading for C=C1C(=O)O[C@@H]2[C@H]3O[C@]3(C)CC/C=C(/COC(=O)Nc3ccccc3)CC[C@@H]12 : 85.3

viability at 10 µM reading for C=C1C(=O)O[C@@H]2[C@H]3O[C@]3(C)CC/C=C(/COC(C(=O)OCC)c3ccccc3)CC[C@@H]12 (some centres undefined) : 85.8

viability at 10 µM reading for C=C1C(=O)O[C@@H]2[C@H]3O[C@]3(C)CC/C=C(/COc3coc(-c4ccc(Br)cc4)c3)CC[C@@H]12 : 97.1

viability at 10 µM reading for C=C1C(=O)O[C@@H]2[C@H]3O[C@]3(C)CC/C=C(/C)[C@@H](OC(=O)c3cc(C(F)(F)F)cc(C(F)(F)F)c3)C[C@@H]12 : 2.2

viability at 10 µM reading for C=C1C(=O)O[C@@H]2C3O[C@]3(C)CC/C=C(\C)CC[C@@H]12 (some centres undefined) : 82.6

----------
Tested on: SJSA-1
Run description: Cytotoxicity against human SJSA1 cells assessed as cell viability at 10 uM after 24 hrs by MTT assay relative to control
Format: functional
Test conditions: SJSA-1, 24 h, read-out: Activity
Property name: viability at 10 µM (%)
The reply should contain only the number, in %.

Known results for molecules:
# Molecule, Reported measurement
records = [
    ("C=C1C(=O)O[C@@H]2[C@H]3O[C@]3(C)CC/C=C(/COC(=O)Nc3cc(C(F)(F)F)cc(C(F)(F)F)c3)CC[C@@H]12", 23.3),
    ("C=C1C(=O)O[C@@H]2[C@H]3O[C@]3(C)CC/C=C(/COC(=O)Nc3cccc4ccccc34)CC[C@@H]12", 98.3),
    ("C=C1C(=O)O[C@@H]2[C@H]3O[C@]3(C)CC/C=C(/COC(=O)c3coc(-c4ccc(Br)cc4)c3)CC[C@@H]12", 47.7),
    ("C=C1C(=O)O[C@@H]2[C@H]3O[C@]3(C)CC/C=C(/COCc3ccc(C(F)(F)F)cc3)CC[C@@H]12", 100),
    ("C=C1C(=O)O[C@@H]2[C@H]3O[C@]3(C)CC/C=C(/COC(=O)c3cc(-c4ccc(Cl)cc4)on3)CC[C@@H]12", 100),
]

viability at 10 µM reading for C=C1C(=O)O[C@@H]2[C@H]3O[C@]3(C)CC/C=C(/C)[C@@H](OC(C(=O)OCc3ccccc3)c3ccccc3)C[C@@H]12 (some centres not stated) : 103

viability at 10 µM reading for C=C1C(=O)O[C@@H]2[C@H]3O[C@]3(C)CC/C=C(/C)[C@@H](OC(=O)c3cc(-c4ccc(Cl)cc4)on3)C[C@@H]12 : 92.7

viability at 10 µM reading for C=C1C(=O)O[C@@H]2C3O[C@]3(C)CC/C=C(\C)CC[C@@H]12 (some centres not stated) : 100

viability at 10 µM reading for C=C1C(=O)O[C@@H]2[C@H]3O[C@]3(C)CC/C=C(/COCc3ccccc3)CC[C@@H]12 : 99.4

viability at 10 µM reading for C=C1C(=O)O[C@@H]2[C@H]3O[C@]3(C)CC/C=C(/COC(=O)c3ccc(C(F)(F)F)cc3C(F)(F)F)CC[C@@H]12 : 17.8

----------
Test system: JeKo-1
Run description: Cytotoxicity against human JeKo1 cells assessed as cell viability at 10 uM after 24 hrs by MTT assay relative to control
Assay type: functional
Test conditions: JeKo-1, 24 h, read-out: Activity
Examples of compounds with documented viability at 10 µM follow.
The reply should contain only the number, in %.

Known results for compounds:
# Compound, Reported measurement
rows = [
    ("C=C1C(=O)O[C@@H]2[C@H]3O[C@]3(C)CC/C=C(/C)[C@@H](OC(C(=O)OCC)c3ccc(C(F)(F)F)cc3)C[C@@H]12 (some centres undefined)", -1.4),
    ("C=C1C(=O)O[C@@H]2[C@H]3O[C@]3(C)CC/C=C(/COC(=O)Nc3ccc([N+](=O)[O-])cc3)CC[C@@H]12", -0.1),
    ("C=C1C(=O)O[C@@H]2[C@H]3O[C@]3(C)CC/C=C(/COC(=O)Nc3cccc4ccccc34)CC[C@@H]12", 16.8),
]

The record that follows has no viability at 10 µM shown yet.
viability at 10 µM reading for C=C1C(=O)O[C@@H]2[C@H]3O[C@]3(C)CC/C=C(/C)[C@@H](OC(=O)c3cccs3)C[C@@H]12 : 12.9

----------
System: JeKo-1
Run description: Cytotoxicity against human JeKo1 cells assessed as cell viability at 2 uM after 24 hrs by MTT assay relative to control
Format: functional
Test conditions: JeKo-1, 24 h, read-out: Activity
Property name: viability at 2 µM

viability at 2 µM reading for C=C1C(=O)O[C@@H]2[C@H]3O[C@]3(C)CC/C=C(/C)[C@@H](OC(=O)c3ccc4ccccc4c3)C[C@@H]12 : 97%

viability at 2 µM reading for C=C1C(=O)O[C@@H]2[C@H]3O[C@]3(C)CC/C=C(/COc3coc(-c4ccc(Br)cc4)c3)CC[C@@H]12 : 98.8%

viability at 2 µM reading for C=C1C(=O)O[C@@H]2[C@H]3O[C@]3(C)CC/C=C(/C)[C@@H](OC(=O)c3ccc(C(F)(F)F)cc3C(F)(F)F)C[C@@H]12 : 105%

viability at 2 µM reading for C=C1C(=O)O[C@@H]2[C@H]3O[C@]3(C)CC/C=C(/COCc3ccc(C(F)(F)F)cc3)CC[C@@H]12 : 97.3%

----------
Examples of compounds with documented viability at 10 µM follow.
Test system: HCT-116
Run description: Cytotoxicity against human HCT116 cells assessed as cell viability at 10 uM after 24 hrs by MTT assay relative to control
Type: functional
Test conditions: HCT-116, 24 h, read-out: Activity

# Compound, viability at 10 µM
rows = [
    ("C=C1C(=O)O[C@@H]2[C@H]3O[C@]3(C)CC/C=C(/C)[C@@H](OC(C(=O)OCC)c3ccc(C(F)(F)F)cc3)C[C@@H]12 (stereo not given in full)", "20%"),
    ("C=C1C(=O)O[C@@H]2[C@H]3O[C@]3(C)CC/C=C(/C)[C@@H](OC(=O)Nc3cccc4ccccc34)C[C@@H]12", "100%"),
    ("C=C1C(=O)O[C@@H]2[C@H]3O[C@]3(C)CC/C=C(/C)[C@@H](OC(=O)Nc3ccccc3)C[C@@H]12", "55.3%"),
    ("C=C1C(=O)O[C@@H]2[C@H]3O[C@]3(C)CC/C=C(/COC(=O)c3cc(C(F)(F)F)cc(C(F)(F)F)c3)CC[C@@H]12", "15.5%"),
    ("C=C1C(=O)O[C@@H]2[C@H]3O[C@]3(C)CC/C=C(/C)[C@@H](OC(=O)c3cc(-c4ccc(Cl)cc4)on3)C[C@@H]12", "14.2%"),
    ("C=C1C(=O)O[C@@H]2[C@H]3O[C@]3(C)CC/C=C(/COC(=O)c3ccc4ccccc4c3)CC[C@@H]12", "100%"),
    ("C=C1C(=O)O[C@@H]2[C@H]3O[C@]3(C)CC/C=C(/C)[C@@H](OC(=O)c3ccc(C(F)(F)F)cc3C(F)(F)F)C[C@@H]12", "20.8%"),
    ("C=C1C(=O)O[C@@H]2[C@H]3O[C@]3(C)CC/C=C(/COC(C(=O)OCC)c3ccc(C(F)(F)F)cc3)CC[C@@H]12 (stereo not given in full)", "77.5%"),
    ("C=C1C(=O)O[C@@H]2[C@H]3O[C@]3(C)CC/C=C(/COC(C(=O)OCC)c3ccccc3)CC[C@@H]12 (stereo not given in full)", "76.7%"),
    ("C=C1C(=O)O[C@@H]2[C@H]3O[C@]3(C)CC/C=C(/C)[C@@H](OC(=O)c3cc(C(F)(F)F)cc(C(F)(F)F)c3)C[C@@H]12", "54.4%"),
]

viability at 10 µM reading for C=C1C(=O)O[C@@H]2[C@H]3O[C@]3(C)CC/C=C(/COC(=O)c3ccc(C(F)(F)F)cc3)CC[C@@H]12 : 27.3%

viability at 10 µM reading for C=C1C(=O)O[C@@H]2[C@H]3O[C@]3(C)CC/C=C(\C)[C@@H](OC(=O)c3ccc(C(F)(F)F)cc3)C[C@@H]12 : 40%

viability at 10 µM reading for C=C1C(=O)O[C@@H]2[C@H]3O[C@]3(C)CC/C=C(/C)[C@@H](OC(C(=O)OCC)c3ccccc3)C[C@@H]12 (stereo not given in full) : 46.2%

viability at 10 µM reading for C=C1C(=O)O[C@@H]2[C@H]3O[C@]3(C)CC/C=C(/COC(C(=O)OCc3ccccc3)c3ccccc3)CC[C@@H]12 (stereo not given in full) : 45.8%

viability at 10 µM reading for C=C1C(=O)O[C@@H]2[C@H]3O[C@]3(C)CC/C=C(/COC(=O)Nc3ccc(F)cc3F)CC[C@@H]12 : 33.2%
